test system: repetitive cold stress rat models; experiment: Test for inhibition of pain threshold decrease by repetitive cold stress (continuous administration), Randall-Selitto method; format: in vivo; settings: Rattus norvegicus, po, 192 h; day 8 after applying the repetitive cold stress; orally 3 mg/kg once a day; with stress; average of 5 or 6 cases; read-out: Rate of inhibition of pain threshold decrease (%)
Where a name gives a salt, the structure may show the parent alone.

molecule: COc1ccc(OCCCN(CCOC(C)=O)C(C)C)c(C2Sc3cc(Cl)ccc3N2C(C)=O)c1 (single isomer, unassigned; (+)) [Compound H, hydrochloride]
inhibition in vivo at 3 mg/kg: 34.5%
//
molecule: COc1ccc(OCCCN(CCO)C(C)C)c(C2Sc3cc(Cl)ccc3N2C(C)=O)c1.Cl (single isomer, unassigned; (+)) [Compound A, hydrochloride]
inhibition in vivo at 3 mg/kg: 52.1%
//
molecule: COc1ccc(OCCCCl)c(C2Sc3cc(Cl)ccc3N2C(C)=O)c1 (single isomer, unassigned; (+)) [Compound F, hydrochloride]
inhibition in vivo at 3 mg/kg: 43.1%
//
molecule: COc1ccc(OC(C)CCN(CCO)C(C)C)c(C2Sc3cc(Cl)ccc3N2C(C)=O)c1 (stereo not shown) [Compound G, hydrochloride]
inhibition in vivo at 3 mg/kg: 32.8%
